- Test system: THP-1
- assay_method_text: Cytotoxicity against human THP1 cells after 48 hrs by SRB assay
- Assay type: functional, cell-based
- measurement_conditions: THP-1, 48 h
readout: IC50 (µM)
Field format: number, assumed µM, no unit text.

- compound: "C=C(C)[C@@H]1CC[C@]2(C(=O)O)CC[C@]3(C)[C@H](CC[C@@H]4[C@@]5(C)CC[C@H](OCc6cn(-c7ccccc7C#N)nn6)C(C)(C)[C@@H]5CC[C@]43C)[C@@H]12"
  numeric_result: 4.5
- compound: "C=C(C)[C@@H]1CC[C@]2(C(=O)O)CC[C@]3(C)[C@H](CC[C@@H]4[C@@]5(C)CC[C@H](OCc6cn(-c7ccc([N+](=O)[O-])cc7)nn6)C(C)(C)[C@@H]5CC[C@]43C)[C@@H]12"
  numeric_result: 9
- compound: "C=C(C)[C@@H]1CC[C@]2(C(=O)O)CC[C@]3(C)[C@H](CC[C@@H]4[C@@]5(C)CC[C@H](OCc6cn(-c7cccc8c(O)cccc78)nn6)C(C)(C)[C@@H]5CC[C@]43C)[C@@H]12"
  numeric_result: 8

Query (compound): C=C(C)[C@@H]1CC[C@]2(C(=O)O)CC[C@]3(C)[C@H](CC[C@@H]4[C@@]5(C)CC[C@H](OCc6cn(C7O[C@H](COC(C)=O)[C@H](OC(C)=O)[C@H](OC(C)=O)[C@H]7OC(C)=O)nn6)C(C)(C)[C@@H]5CC[C@]43C)[C@@H]12 (stereo not given in full) ; field requested: IC50
50

# IC50 lookup, item C=C(C)[C@@H]1CC[C@]2(C(=O)O)CC[C@]3(C)[C@H](CC[C@@H]4[C@@]5(C)CC[C@H](OCc6cn(-c7cc(I)ccc7C)nn6)C(C)(C)[C@@H]5CC[C@]43C)[C@@H]12
22

----------
- Tested on: HL-60
- assay_method_text: Cytotoxicity against human HL60 cells after 48 hrs by SRB assay
- Assay type: functional, cell-based
- measurement_conditions: HL-60, 48 h
Catalogue of compounds with associated IC50
Form entry: value (µM) — number only.

Below are worked cases with known answers.
- compound: "C=C(C)[C@@H]1CC[C@]2(C(=O)O)CC[C@]3(C)[C@H](CC[C@@H]4[C@@]5(C)CC[C@H](OCc6cn(-c7ccc(OC)cc7)nn6)C(C)(C)[C@@H]5CC[C@]43C)[C@@H]12"
  experimental_system: "HL-60"
  IC50 / µM: 8
- compound: "C=C(C)[C@@H]1CC[C@]2(C(=O)O)CC[C@]3(C)[C@H](CC[C@@H]4[C@@]5(C)CC[C@H](OCc6cn(-c7ccc(CC#N)cc7)nn6)C(C)(C)[C@@H]5CC[C@]43C)[C@@H]12"
  experimental_system: "HL-60"
  IC50 / µM: 11
- compound: "C=C(C)[C@@H]1CC[C@]2(C(=O)O)CC[C@]3(C)[C@H](CC[C@@H]4[C@@]5(C)CC[C@H](OCc6cn(-c7cccc(I)c7)nn6)C(C)(C)[C@@H]5CC[C@]43C)[C@@H]12"
  experimental_system: "HL-60"
  IC50 / µM: 43
- compound: "C=C(C)[C@@H]1CC[C@]2(C(=O)O)CC[C@]3(C)[C@H](CC[C@@H]4[C@@]5(C)CC[C@H](OCc6cn(-c7ccc(C#N)cc7)nn6)C(C)(C)[C@@H]5CC[C@]43C)[C@@H]12"
  experimental_system: "HL-60"
  IC50 / µM: 32

Suppose we examine the compound C=C(C)[C@@H]1CC[C@]2(C(=O)O)CC[C@]3(C)[C@H](CC[C@@H]4[C@@]5(C)CC[C@H](OCc6cn(-c7ccccc7CO)nn6)C(C)(C)[C@@H]5CC[C@]43C)[C@@H]12 ; what IC50 value has been reported?
10

I would be grateful if you could share the reported IC50 for C=C(C)[C@@H]1CC[C@]2(C(=O)O)CC[C@]3(C)[C@H](CC[C@@H]4[C@@]5(C)CC[C@H](O)C(C)(C)[C@@H]5CC[C@]43C)[C@@H]12 [BETULINIC ACID] .
17

----------
- Tested on: HL-60
- assay_method_text: Cytotoxicity against human HL60 cells at 10 uM after 48 hrs by SRB assay
- Assay type: functional
- measurement_conditions: HL-60, 48 h, read-out: GI
Everything with inhibition of growth at 10 µM lower than 40% is No; everything else, including exactly 40%, is Yes.

- compound: "C=C(C)[C@@H]1CC[C@]2(C(=O)O)CC[C@]3(C)[C@H](CC[C@@H]4[C@@]5(C)CC[C@H](OCc6cn(-c7ccccc7C#N)nn6)C(C)(C)[C@@H]5CC[C@]43C)[C@@H]12"
  assigned_class: "Yes"

Entry C=C(C)[C@@H]1CC[C@]2(C(=O)O)CC[C@]3(C)[C@H](CC[C@@H]4[C@@]5(C)CC[C@H](O)C(C)(C)[C@@H]5CC[C@]43C)[C@@H]12 [BETULINIC ACID] : is its inhibition of growth at 10 µM no less than 40%?
No

Reported inhibition of growth at 10 µM at or above 40%? C=C(C)[C@@H]1CC[C@]2(C(=O)O)CC[C@]3(C)[C@H](CC[C@@H]4[C@@]5(C)CC[C@H](OCc6cn(-c7cccc8c(O)cccc78)nn6)C(C)(C)[C@@H]5CC[C@]43C)[C@@H]12
Yes

Could you verify whether the entry C=C(C)[C@@H]1CC[C@]2(C(=O)O)CC[C@]3(C)[C@H](CC[C@@H]4[C@@]5(C)CC[C@H](OCc6cn(-c7ccc(C(=O)c8ccccc8)cc7)nn6)C(C)(C)[C@@H]5CC[C@]43C)[C@@H]12 shows inhibition of growth at 10 µM of no less than 40%?
No

Can C=C(C)[C@@H]1CC[C@]2(C(=O)O)CC[C@]3(C)[C@H](CC[C@@H]4[C@@]5(C)CC[C@H](OCc6cn(-c7ccc(CC#N)cc7)nn6)C(C)(C)[C@@H]5CC[C@]43C)[C@@H]12 be said to have inhibition of growth at 10 µM at or above 40%?
Yes

Decide: is the reported value of inhibition of growth at 10 µM for C=C(C)[C@@H]1CC[C@]2(C(=O)O)CC[C@]3(C)[C@H](CC[C@@H]4[C@@]5(C)CC[C@H](OCc6cn(-c7cccc(CO)c7)nn6)C(C)(C)[C@@H]5CC[C@]43C)[C@@H]12 equal to or greater than 40%?
Yes

----------
Attribute: inhibition of growth at 50 µM
- System: MCF7
- assay_method_text: Cytotoxicity against human MCF7 cells at 50 uM after 48 hrs by SRB assay
- Type: functional
- measurement_conditions: MCF7, 48 h, read-out: GI
Report as a plain number; the unit % is understood.

Known inhibition of growth at 50 µM results, listed for orientation:
- cpd_smiles: "C=C(C)[C@@H]1CC[C@]2(C(=O)O)CC[C@]3(C)[C@H](CC[C@@H]4[C@@]5(C)CC[C@H](OCc6cn(-c7cccc(OC)c7)nn6)C(C)(C)[C@@H]5CC[C@]43C)[C@@H]12"
  inhibition of growth at 50 µM / %: 75
- cpd_smiles: "C=C(C)[C@@H]1CC[C@]2(C(=O)O)CC[C@]3(C)[C@H](CC[C@@H]4[C@@]5(C)CC[C@H](OCc6cn(-c7ccc8c(c7)OCO8)nn6)C(C)(C)[C@@H]5CC[C@]43C)[C@@H]12"
  inhibition of growth at 50 µM / %: 82
- cpd_smiles: "C=C(C)[C@@H]1CC[C@]2(C(=O)O)CC[C@]3(C)[C@H](CC[C@@H]4[C@@]5(C)CC[C@H](OCc6cn(-c7cc(C)cc(O)c7)nn6)C(C)(C)[C@@H]5CC[C@]43C)[C@@H]12"
  inhibition of growth at 50 µM / %: 96
- cpd_smiles: "C=C(C)[C@@H]1CC[C@]2(C(=O)O)CC[C@]3(C)[C@H](CC[C@@H]4[C@@]5(C)CC[C@H](OCc6cn(-c7cccc(CO)c7)nn6)C(C)(C)[C@@H]5CC[C@]43C)[C@@H]12"
  inhibition of growth at 50 µM / %: 75
- cpd_smiles: "C=C(C)[C@@H]1CC[C@]2(C(=O)O)CC[C@]3(C)[C@H](CC[C@@H]4[C@@]5(C)CC[C@H](OCc6cn(-c7ccc(C#N)cc7)nn6)C(C)(C)[C@@H]5CC[C@]43C)[C@@H]12"
  inhibition of growth at 50 µM / %: 51
- cpd_smiles: "C=C(C)[C@@H]1CC[C@]2(C(=O)O)CC[C@]3(C)[C@H](CC[C@@H]4[C@@]5(C)CC[C@H](O)C(C)(C)[C@@H]5CC[C@]43C)[C@@H]12"
  inhibition of growth at 50 µM / %: 80
- cpd_smiles: "C=C(C)[C@@H]1CC[C@]2(C(=O)O)CC[C@]3(C)[C@H](CC[C@@H]4[C@@]5(C)CC[C@H](OCc6cn(-c7ccc([N+](=O)[O-])cc7)nn6)C(C)(C)[C@@H]5CC[C@]43C)[C@@H]12"
  inhibition of growth at 50 µM / %: 53
- cpd_smiles: "C=C(C)[C@@H]1CC[C@]2(C(=O)O)CC[C@]3(C)[C@H](CC[C@@H]4[C@@]5(C)CC[C@H](OCc6cn(-c7cc(OC)c(OC)c(OC)c7)nn6)C(C)(C)[C@@H]5CC[C@]43C)[C@@H]12"
  inhibition of growth at 50 µM / %: 74

Shifting focus to the compound that follows.
Recorded inhibition of growth at 50 µM for C=C(C)[C@@H]1CC[C@]2(C(=O)O)CC[C@]3(C)[C@H](CC[C@@H]4[C@@]5(C)CC[C@H](OCc6cn(-c7ccccc7C#N)nn6)C(C)(C)[C@@H]5CC[C@]43C)[C@@H]12 with MCF7, please?
97
